Assay: Human HepG2 cell viability assay in 384 well format
Type: toxicity, cell-based
Parameters: dose 125 nL, time 70.5 hour; concentration not given beside the values
Settings: HepG2 cells, read-out: Inhibition
READOUT_KIND: cytotoxicity at 70.5 h
Write the quantity with the unit trailing the number.

Challenge: Please report the recorded cytotoxicity at 70.5 h for Cc1ccc([C@@H]2CN(C(=O)c3ccsc3)C[C@H]2NC(=O)C2CC2)cc1 .
Response given: -8.66%

Challenge: Please report the recorded cytotoxicity at 70.5 h for O=C(c1ccc(Cl)cc1-n1cnnn1)N1CCC2(CC1)OCCO2 .
Response given: -0.151%

Challenge: Please report the recorded cytotoxicity at 70.5 h for c1ccc(CN2CCC(NCCSc3cnn[nH]3)CC2)cc1 .
Response given: 2.48%

Challenge: Please report the recorded cytotoxicity at 70.5 h for Cc1occc1C(=O)NCC(=O)N1CCC(COc2ccccc2)CC1 .
Response given: -2.93%

Challenge: Please report the recorded cytotoxicity at 70.5 h for COC[C@@H]1CCC[C@]12CN(Cc1cccc(C)n1)CCO2 .
Response given: -14.3%

Challenge: Please report the recorded cytotoxicity at 70.5 h for COc1nc(C)c(C(=O)N2CCN(c3ncccc3C)CC2)s1 .
Response given: -4.24%

Challenge: Please report the recorded cytotoxicity at 70.5 h for CC(C)(C)n1cc(C(=O)N2CCN(Cc3ccco3)CC2)cn1 .
Response given: -8.01%

Challenge: Please report the recorded cytotoxicity at 70.5 h for CN1C[C@@H](F)[C@@H](OCc2nc3ccccc3n2C)C1 .
Response given: -2.45%

Challenge: Please report the recorded cytotoxicity at 70.5 h for O=C(Nc1cccnc1)C1CN(C(=O)c2ccc3c(c2)OCO3)C1 .
Response given: -14.4%

Challenge: Please report the recorded cytotoxicity at 70.5 h for CCc1nc(C)c(C2CC(=O)Nc3c2c(-c2ccccn2)nn3C)[nH]1 (stereo not drawn) .
Response given: 1.83%

Challenge: Please report the recorded cytotoxicity at 70.5 h for O=C([C@@H]1CCO[C@@H]2CCN(Cc3cccs3)C[C@H]21)N1CCCCO1 .
Response given: -18.4%

Challenge: Please report the recorded cytotoxicity at 70.5 h for CCCC(=O)N(C)Cc1cccc(OC(C)C)c1 .
Response given: 9.69%

Challenge: Please report the recorded cytotoxicity at 70.5 h for COc1ccc(NC(=O)CSc2nc(C)cc(C)n2)cn1 .
Response given: -8.52%

Challenge: Please report the recorded cytotoxicity at 70.5 h for COc1ccc(CNC(=O)NCCCNS(C)(=O)=O)cc1OC .
Response given: -8.21%

Challenge: Please report the recorded cytotoxicity at 70.5 h for O=C(c1ccsc1)N1CCCC(c2cc(C(F)(F)F)[nH]n2)C1 (stereo not drawn) .
Response given: 11.1%

Challenge: Please report the recorded cytotoxicity at 70.5 h for CN(C)C(=O)Cn1ccc2cc(NC(=O)N3CCOCC3)ccc21 .
Response given: -5.35%

Challenge: Please report the recorded cytotoxicity at 70.5 h for Cc1ccc2[nH]c(=O)c(CN(C)Cc3cc(C4CC4)[nH]n3)cc2c1 .
Response given: 11.1%

Challenge: Please report the recorded cytotoxicity at 70.5 h for Cc1nnc2n1CCN(C(=O)CN(C)Cc1ccccc1)C2 .
Response given: 19.2%

Challenge: Please report the recorded cytotoxicity at 70.5 h for CCc1nc(NS(=O)(=O)c2ccc(C)cc2Cl)no1 .
Response given: -4.3%

Challenge: Please report the recorded cytotoxicity at 70.5 h for CCn1cnnc1C1CCN(C(=O)c2cccc(OC)c2OC)CC1 .
Response given: -7.68%

Challenge: Please report the recorded cytotoxicity at 70.5 h for CCN(CC)C(=O)CSc1nc2cc(C)nc-2c(O)n1Cc1ccco1 .
Response given: -10.9%

Challenge: Please report the recorded cytotoxicity at 70.5 h for CCNC(=O)CCC(=O)N1CCC(Oc2cc(C)ccc2C)CC1 .
Response given: -19.2%

Challenge: Please report the recorded cytotoxicity at 70.5 h for O=C(NCCCN1CCCCC1)c1ccc(-n2ccc3ccccc32)s1 .
Response given: 64.9%

Challenge: Please report the recorded cytotoxicity at 70.5 h for COc1ccc(-c2nc(CNCCn3cccn3)cs2)cc1 .
Response given: -5.1%

Challenge: Please report the recorded cytotoxicity at 70.5 h for CCCc1nc(C)c(CNc2nc(C)nc3onc(C)c23)s1 .
Response given: 2.81%

Challenge: Please report the recorded cytotoxicity at 70.5 h for N#Cc1ccc(Cl)cc1NCC1CCOC1 (stereo not drawn) .
Response given: -1.84%

Challenge: Please report the recorded cytotoxicity at 70.5 h for O=C1NCCN1C(CNS(=O)(=O)C1CC1)Cc1cccc(F)c1 (stereo not drawn) .
Response given: -13.5%

Challenge: Please report the recorded cytotoxicity at 70.5 h for O=C(O)c1cc2c(nc1O)CC(c1cccc(Cl)c1)CC2=O (stereo not drawn) .
Response given: -2.93%

Challenge: Please report the recorded cytotoxicity at 70.5 h for CC(=O)NC1CCCc2c1[nH]c1ccc(F)cc21 (stereo not drawn) .
Response given: 29.6%

Challenge: Please report the recorded cytotoxicity at 70.5 h for CC(C)c1nccn1C1CCCN(C(=O)c2cnn(C)c2C2CC2)C1 (stereo not drawn) .
Response given: 5.54%

Challenge: Please report the recorded cytotoxicity at 70.5 h for O=C1c2cnc(N3CCOCC3)nc2CN1C1CCS(=O)(=O)C1 (stereo not drawn) .
Response given: 5.93%

Challenge: Please report the recorded cytotoxicity at 70.5 h for Cc1cnn(CC2CCCCN2C(=O)c2ccc3[nH]nnc3c2)c1 (stereo not drawn) .
Response given: -11.6%

Challenge: Please report the recorded cytotoxicity at 70.5 h for O=C(c1ccc[nH]1)N1CCCn2c(CN3CCCCC3)nnc2C1 .
Response given: -5.4%

Challenge: Please report the recorded cytotoxicity at 70.5 h for CCC(CN1CCN(C)CC1)NC(=O)C1(c2cccc(F)c2)CC1 (stereo not drawn) .
Response given: -4.87%

Challenge: Please report the recorded cytotoxicity at 70.5 h for COCC1CC2(CCN(Cc3cnn(C)c3)CC2)CN1C(C)C (stereo not drawn) .
Response given: -15.8%

Challenge: Please report the recorded cytotoxicity at 70.5 h for CCN1CC2(CCCCN2C(=O)c2ccsc2)CC1=O (stereo not drawn) .
Response given: 2.62%

Challenge: Please report the recorded cytotoxicity at 70.5 h for CCc1nccn1C1CCCN(C(=O)c2ccc(NC3CC3)nc2)C1 (stereo not drawn) .
Response given: -2.23%

Challenge: Please report the recorded cytotoxicity at 70.5 h for CCN(CC)CC1CCN(Cc2ccn(C)c(=O)c2)CC1 .
Response given: -4.81%

Challenge: Please report the recorded cytotoxicity at 70.5 h for CCS(=O)(=O)N1CCC2(CCN(Cc3nccs3)CC2)CC1 .
Response given: 15.2%

Challenge: Please report the recorded cytotoxicity at 70.5 h for Cc1nccn1CCCn1cncc1-c1ccc2c(c1)CCCN2C .
Response given: -5.52%

Challenge: Please report the recorded cytotoxicity at 70.5 h for NC(=O)c1ccc(S(=O)(=O)NC2CCN(Cc3ccccc3)C2=O)cc1 (stereo not drawn) .
Response given: -8.89%

Challenge: Please report the recorded cytotoxicity at 70.5 h for O=C(COCCOc1ccccc1)NC1CCN(c2ccccn2)CC1 .
Response given: -12.1%

Challenge: Please report the recorded cytotoxicity at 70.5 h for CCc1n[nH]c(C2CN(Cc3nccn3CC)CCO2)n1 (stereo not drawn) .
Response given: 22.2%

Challenge: Please report the recorded cytotoxicity at 70.5 h for Cc1cc(C)n(NC(=O)c2ccccc2C)c(=O)c1 .
Response given: -3.12%

Challenge: Please report the recorded cytotoxicity at 70.5 h for COCC(C)NC(=O)CN1CCC2(CC1)OCCO2 (stereo not drawn) .
Response given: -3.81%

Challenge: Please report the recorded cytotoxicity at 70.5 h for COC(=O)N1CCN2C[C@H](CO)[C@@H](c3ccccc3)[C@H]2C1 .
Response given: -4.89%

Challenge: Please report the recorded cytotoxicity at 70.5 h for CN(C)S(=O)(=O)N1CCC2(CCCN(Cc3ccc(F)cc3)C2=O)C1 (stereo not drawn) .
Response given: -2.15%

Challenge: Please report the recorded cytotoxicity at 70.5 h for CC(NC(=O)NCCn1ccnc1)c1ccc2c(c1)OCCO2 (stereo not drawn) .
Response given: -14.3%

Values compiled from ChEMBL document CHEMBL3507680.
